- testedSystem: UniProt:O43570
- testParameters: read-out: KI (nM) Activity hCAXII; Table 1
Reported Ki by item:
All answers are understood in nM, so give the number only.

Consider the worked cases shown below.
{"compound": "COc1ccc(NC(=O)Nc2ccc(S(N)(=O)=O)cc2)c(C)c1 [MST-120]", "testedSystem": "UniProt:O43570", "experimentalResult": 6}
{"compound": "CCCCOc1ccc(NC(=O)Nc2ccc(S(N)(=O)=O)cc2)cc1 [MST-113]", "testedSystem": "UniProt:O43570", "experimentalResult": 2.5}
{"compound": "NS(=O)(=O)c1ccc(NC(=O)Nc2ccc(Cl)cc2)cc1 [MST-124]", "testedSystem": "UniProt:O43570", "experimentalResult": 5.3}
{"compound": "NS(=O)(=O)c1ccc(NC(=O)NC2CCCC2)cc1 [MST-122]", "testedSystem": "UniProt:O43570", "experimentalResult": 7}

Report Ki for NS(=O)(=O)c1ccc(NC(=O)Nc2c(F)c(F)c(F)c(F)c2F)cc1 [MST-107] tested on UniProt:O43570.
5.1

---

- testedSystem: hCA XII (Homo sapiens (Human), UniProt O43570)
- Sequence (O43570 25-354): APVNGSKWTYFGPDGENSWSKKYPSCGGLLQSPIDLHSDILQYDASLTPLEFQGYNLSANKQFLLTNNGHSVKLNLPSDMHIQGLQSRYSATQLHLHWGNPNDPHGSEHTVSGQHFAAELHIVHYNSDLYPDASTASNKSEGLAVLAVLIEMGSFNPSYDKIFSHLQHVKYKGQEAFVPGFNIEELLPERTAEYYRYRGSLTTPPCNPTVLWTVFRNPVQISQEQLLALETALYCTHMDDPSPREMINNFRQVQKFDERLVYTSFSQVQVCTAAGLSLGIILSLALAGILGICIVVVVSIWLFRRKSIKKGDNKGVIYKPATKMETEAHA
- testParameters: read-out: KI (nM) Activity hCAXII; Table 1
Our labelling divides records by Ki into ranges: A (below 5 nM), B (5 nM to below 8 nM), C (8 nM or more)

Worked examples, 6 compounds total:
{"smilesInput": "NS(=O)(=O)c1ccc(NC(=O)Nc2ccc(I)cc2)cc1", "group": "A"}
{"smilesInput": "N#Cc1ccc(NC(=O)Nc2ccc(S(N)(=O)=O)cc2)cc1", "group": "B"}
{"smilesInput": "CC(=O)c1ccc(NC(=O)Nc2ccc(S(N)(=O)=O)cc2)cc1", "group": "A"}
{"smilesInput": "NS(=O)(=O)c1ccc(NC(=O)Nc2ccc(Oc3ccccc3)cc2)cc1", "group": "B"}
{"smilesInput": "COc1ccccc1NC(=O)Nc1ccc(S(N)(=O)=O)cc1", "group": "C"}
{"smilesInput": "CC(C)c1ccccc1NC(=O)Nc1ccc(S(N)(=O)=O)cc1", "group": "A"}

Please report the category associated with `CC(C)c1ccc(NC(=O)Nc2ccc(S(N)(=O)=O)cc2)cc1` , nothing else.
C

// query: `CCCCc1ccc(NC(=O)Nc2ccc(S(N)(=O)=O)cc2)cc1`
C

// query: `N#Cc1ccccc1NC(=O)Nc1ccc(S(N)(=O)=O)cc1`
A

---

- testedSystem: hCA IX (Homo sapiens (Human), UniProt Q16790)
- protocolDescription: biochemical
measurementName: Ki (nM)
All answers are understood in nM, so give the number only.

Entry NS(=O)(=O)c1cccc(NC(=O)Nc2c(F)c(F)c(F)c(F)c2F)c1 [MST-133] : reported Ki = ?
4.2

---

Reported Ki by item:
- testedSystem: UniProtKB Q16790
- testParameters: read-out: KI (nM) Activity hCAIX; Table 1
All answers are understood in nM, so give the number only.

{"smilesInput": "NS(=O)(=O)c1ccc(NC(=O)NC2CCCC2)cc1", "Ki / nM": 7.3}
{"smilesInput": "NS(=O)(=O)c1ccc(NC(=O)Nc2ccc(Br)cc2)cc1", "Ki / nM": 69.3}

Report Ki for `NS(=O)(=O)c1ccc(NC(=O)Nc2c(F)c(F)c(F)c(F)c2F)cc1` tested on UniProtKB Q16790.
5.4

---

- testedSystem: hCA II (Homo sapiens (Human), UniProt P00918)
- testParameters: read-out: Ki (nM) hCA II; Table 3
measurementName: Ki

Entry `NS(=O)(=O)c1ccc(NC(=O)Nc2cccc(Cl)c2)cc1` : reported Ki = ?
10 nM

---

- testedSystem: hCA IX (Homo sapiens (Human), UniProt Q16790)
- testParameters: read-out: Ki (nM) hCA IX; Table 2
measurementName: Ki
Write the quantity with the unit trailing the number.

Consider the worked cases shown below.
{"compound": "CC(C)c1ccccc1NC(=O)Nc1cccc(S(N)(=O)=O)c1 [MST-132]", "Ki": "18.5 nM"}
{"compound": "NS(=O)(=O)c1cccc(NC(=O)Nc2cccc([N+](=O)[O-])c2)c1 [MST-130]", "Ki": "7.9 nM"}
{"compound": "NS(=O)(=O)c1cccc(NC(=O)Nc2ccc(I)cc2)c1 [MST-128]", "Ki": "13.1 nM"}

Report Ki for NS(=O)(=O)c1cccc(NC(=O)Nc2ccc(F)cc2)c1 [MST-129] tested on hCA IX (Homo sapiens (Human), UniProt Q16790).
10.2 nM

// query: CC(=O)c1ccc(NC(=O)Nc2cccc(S(N)(=O)=O)c2)cc1 [MST-131]
15.1 nM

---

- testedSystem: hCA XII (Homo sapiens (Human), UniProt O43570)
- testParameters: read-out: Ki (nM) hCA XII; Table 3
measurementName: Ki (nM)
All answers are understood in nM, so give the number only.

Report Ki for `NS(=O)(=O)c1ccc(NC(=O)Nc2cccc(Cl)c2)cc1` tested on hCA XII (Homo sapiens (Human), UniProt O43570).
8.5

---

- testedSystem: hCA IX (Homo sapiens (Human), UniProt Q16790)
- testParameters: read-out: KI (nM) Activity hCAIX; Table 1
Assign labels as follows, please: rule met for Ki below 70 nM; rule not met for Ki equal to or exceeding 70 nM.

{"smilesInput": "COc1ccccc1NC(=O)Nc1ccc(S(N)(=O)=O)cc1", "group": "rule not met"}
{"smilesInput": "CCCCOc1ccc(NC(=O)Nc2ccc(S(N)(=O)=O)cc2)cc1", "group": "rule met"}
{"smilesInput": "N#Cc1ccc(NC(=O)Nc2ccc(S(N)(=O)=O)cc2)cc1", "group": "rule met"}

Answer whether the compound `N#Cc1ccccc1NC(=O)Nc1ccc(S(N)(=O)=O)cc1` has Ki strictly less than 70 nM
rule met

// query: `NS(=O)(=O)c1ccc(NC(=O)Nc2ccc(I)cc2)cc1`
rule met

// query: `CC(C)c1ccccc1NC(=O)Nc1ccc(S(N)(=O)=O)cc1`
rule met

// query: `CC(C)c1ccc(NC(=O)Nc2ccc(S(N)(=O)=O)cc2)cc1`
rule not met

// query: `CCCCc1ccc(NC(=O)Nc2ccc(S(N)(=O)=O)cc2)cc1`
rule not met

// query: `NS(=O)(=O)c1ccc(NC(=O)Nc2cccc([N+](=O)[O-])c2)cc1`
rule met
